src = paper PMC9358681

Entries and their Ki values follow.
- TESTED_TARGET: human A2BAR (Homo sapiens, UniProt P29275)
- Construct: host or cells: CHO-spap
- Sequence (P29275 whole entry): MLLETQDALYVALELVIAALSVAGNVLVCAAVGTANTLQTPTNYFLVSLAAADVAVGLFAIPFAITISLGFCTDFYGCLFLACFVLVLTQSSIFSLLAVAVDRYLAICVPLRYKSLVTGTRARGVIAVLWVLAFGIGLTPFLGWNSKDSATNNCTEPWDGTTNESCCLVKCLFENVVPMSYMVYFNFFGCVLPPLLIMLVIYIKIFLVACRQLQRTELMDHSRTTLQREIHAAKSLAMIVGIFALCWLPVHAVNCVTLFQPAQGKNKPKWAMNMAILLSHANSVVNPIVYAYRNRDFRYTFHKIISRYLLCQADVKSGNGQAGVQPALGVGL
- ASSAY_DETAILS: [3H]PSB-603 displacement on CHO-spap-hA2BAR membranes
- Assay type: binding
- CONDITION_DETAILS: […] [3H]PSB-603, 2 h, 25 °C; read-out: Ki (converted)
Field: numeric (nM). Do not append units.

[[record]]
chemical_string = "CCCn1c(=O)c2[nH]c(-c3ccc(OCC(=O)NC4CCC4)cc3)nc2n(CCC)c1=O"
metric = "Ki"
result_units = "nM"
reported_result = 61400

[[record]]
chemical_string = "CCCn1c(=O)c2[nH]c(-c3ccc(OCC(=O)N[C@@H](C)c4ccccc4)cc3)nc2n(CCC)c1=O"
metric = "Ki"
result_units = "nM"
reported_result = 8.11

[[record]]
chemical_string = "CCCn1c(=O)c2[nH]c(-c3ccc(OCC(=O)NC4CCCC4)cc3)nc2n(CCC)c1=O"
metric = "Ki"
result_units = "nM"
reported_result = 16700

[[record]]
chemical_string = "CCCn1c(=O)c2[nH]c(-c3ccc(OCC(=O)Nc4cnccn4)cc3)nc2n(CCC)c1=O"
metric = "Ki"
result_units = "nM"
reported_result = 6950

[[record]]
chemical_string = "CCCn1c(=O)c2[nH]c(-c3ccc(OCC(=O)NCc4ccc(F)cc4)cc3)nc2n(CCC)c1=O"
metric = "Ki"
result_units = "nM"
reported_result = 3.6

[[record]]
chemical_string = "CCCn1c(=O)c2[nH]c(-c3ccc(OCC(=O)NCc4ccc(O)c(O)c4)cc3)nc2n(CCC)c1=O"
metric = "Ki"
result_units = "nM"
reported_result = 24.4


Form field Ki, entry "CCCn1c(=O)c2[nH]c(-c3ccc(OCC(=O)NCc4ccc(C)cc4)cc3)nc2n(CCC)c1=O" : 9.08

====

- TESTED_TARGET: human A2BAR (Homo sapiens, UniProt P29275)
- Construct: host or cells: CHO-spap
- ASSAY_DETAILS: [3H]PSB-603 competition association assay
- Type: binding
- CONDITION_DETAILS: RT = 1/koff; competing ligand at 1.0-fold IC50, up to 3 hr, 25 °C
- Description: In all radioligand binding experiments, CHO-spap-hA2BAR membranes were thawed and homogenized using an Ultra Turrax homogenizer at 24,000 rpm (IKA-Werke GmbH & Co.KG, Staufen, Germany), diluted in assay buffer to the desired concentration (10–30 μg per well or Eppendorf tube). […] Addition of CHO-spap-hA2BAR membrane aliquots initiated the association. The amount of receptor-bound radioligand was determined at different time points up to 3 hr. […]
In this section we review reported RT values for a set of compounds.
API: value field is a number in min; no unit string.

Recorded results for 4 compounds are shown here.
[[record]]
compound = "CCCn1c(=O)c2[nH]c(-c3ccc(OCC(=O)Nc4ccc(C)cc4)cc3)nc2n(CCC)c1=O [Compound 12]"
result_units = "min"
reported_result = 55

[[record]]
compound = "CCCn1c(=O)c2[nH]c(-c3ccc(OCC(=O)NCc4ccc(C)cc4)cc3)nc2n(CCC)c1=O [Compound 20]"
result_units = "min"
reported_result = 22

[[record]]
compound = "CCCn1c(=O)c2[nH]c(-c3ccc(OCC(=O)N[C@@H](C)c4ccccc4)cc3)nc2n(CCC)c1=O [Compound 25]"
result_units = "min"
reported_result = 10

[[record]]
compound = "CCCn1c(=O)c2[nH]c(-c3ccc(OCC(=O)NC(c4ccccc4)c4ccccc4)cc3)nc2n(CCC)c1=O [Compound 26]"
result_units = "min"
reported_result = 19


The recorded RT with human A2BAR (Homo sapiens, UniProt P29275) for CCCn1c(=O)c2[nH]c(-c3ccc(OCC(=O)N[C@H](C)c4ccccc4)cc3)nc2n(CCC)c1=O [Compound 24] was 6.1
